# MEASURED_TARGET: HIS-TGFβR1 T204D (Homo sapiens (Human), UniProt P36897, T204D)
# Sequence (P36897 34-503 T204D): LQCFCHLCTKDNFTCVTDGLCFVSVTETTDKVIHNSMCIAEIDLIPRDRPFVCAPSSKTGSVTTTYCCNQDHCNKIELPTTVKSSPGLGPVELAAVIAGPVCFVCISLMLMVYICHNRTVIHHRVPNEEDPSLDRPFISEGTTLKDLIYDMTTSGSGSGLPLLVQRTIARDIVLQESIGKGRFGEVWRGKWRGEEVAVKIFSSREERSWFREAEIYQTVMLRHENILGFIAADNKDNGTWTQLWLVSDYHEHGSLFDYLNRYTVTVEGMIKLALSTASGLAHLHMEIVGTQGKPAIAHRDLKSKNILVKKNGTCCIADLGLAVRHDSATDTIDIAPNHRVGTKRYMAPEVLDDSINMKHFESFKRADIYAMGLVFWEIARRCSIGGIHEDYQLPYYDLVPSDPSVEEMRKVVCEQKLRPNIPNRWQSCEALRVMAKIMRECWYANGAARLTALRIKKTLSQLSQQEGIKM
# MEASUREMENT_NOTES: HTRF probe-displacement assay, HIS-TGFβR1 T204D
# Assay type: binding
# CONDITION_INFO: 1 hour at room temperature
MEASURED_ENDPOINT: pIC50
# reply with the number alone; pIC50 is -log10 of concentration in mol/L

Below: 3 compounds and their reported pIC50.
In [3]: df
Out[3]:
                                   compound                           measured_target  measured_endpoint  meas_value
0  COc1cccc(-c2nc(Nc3ccncc3F)c3c(C(O)CN4CCN(C)CC4)ccn3n2)n1 (stereo not shown)  HIS-TGFβR1 T204D (Homo sapiens (Human), UniProt P36897, T204D)              pIC50        6.02
1  Cc1cccc(-c2nc(Nc3ccncc3OCCCCN(C)C)c3cccn3n2)n1  HIS-TGFβR1 T204D (Homo sapiens (Human), UniProt P36897, T204D)              pIC50        7.52
2  O=C(CN1CCCC1)Nc1cc(Nc2nc(-c3cccc(C(F)F)n3)nn3cccc23)ccn1  HIS-TGFβR1 T204D (Homo sapiens (Human), UniProt P36897, T204D)              pIC50        9.05

Continue with the next compound.
Input: What pIC50 value was documented for this compound, O=C(Nc1cc(Nc2nc(-c3cccc(C(F)(F)F)n3)nn3cccc23)ccn1)C1CC1 ?
Output: 9.43

====

Recorded log10(IC50), one value per entry.
# MEASURED_TARGET: HIS-TGFβR1 T204D (Homo sapiens (Human), UniProt P36897, T204D)
# MEASUREMENT_NOTES: HTRF probe-displacement assay, HIS-TGFβR1 T204D
# CONDITION_INFO: 1 hour at room temperature
Could you please treat all values as log10 of IC50 in nM?

>>> print(df.to_string())
                                   molecule  meas_value
0  Cc1cc(Nc2nc(-c3cccc(C(F)(F)F)n3)nn3cccc23)ccn1        2.82
1  Cc1cccc(-c2nc(Nc3ccncc3C(=O)NCCCN3CCN(C)CC3)c3cccn3n2)n1        0.54
2  Fc1cnccc1Nc1nc(-c2ccccn2)nn2ccc(CNCCN3CCNCC3)c12        0.62
3  O=C(NC1CCC(F)(F)CC1)c1cnccc1Nc1nc(-c2cccc(C(F)F)n2)nn2cccc12        2.61
4  COC(=O)Nc1cc(Nc2nc(-c3cccc(C(F)(F)F)n3)nn3cccc23)ccn1       -0.06

Input: For HIS-TGFβR1 T204D (Homo sapiens (Human), UniProt P36897, T204D), provide log10(IC50) of O=C(NCCN1CCCCC1)c1cnccc1Nc1nc(-c2ccccn2)nn2cccc12 please.
Output: 1.40

Input: Please answer likewise for CN(C)C1CCC(NCc2ccn3nc(-c4ccccn4)nc(Nc4ccncc4F)c23)CC1 (centres unmarked)
Output: 0.00

Input: Please answer likewise for Fc1cnccc1Nc1nc(-c2ccccn2)nn2ccc(CNCC3CCNCC3)c12
Output: 0.46

Input: Please answer likewise for CC(C)(O)CNCc1ccn2nc(-c3cccc(C(F)(F)F)n3)nc(Nc3ccncc3F)c12
Output: 0.78

// provenance: patent US10336761B2
